test: Hemolysis assay; type: cell-based, human; settings: % Hemolysis, human erythrocytes, 10 μM Mastoparan, 4 h, mean ± SEM
OBSERVATION_TYPE: hemolysis (%)
Lab book: enter the figure in %, no units written.

// hemolysis lookup, compound = CC[C@H](C)[C@H](N)C(=O)N[C@@H](CC(N)=O)C(=O)N[C@@H](CC(C)C)C(=O)N[C@@H](CCCCN)C(=O)N[C@@H](C)C(=O)N[C@@H](CC(C)C)C(=O)N[C@@H](C)C(=O)N[C@@H](C)C(=O)N[C@@H](CC(C)C)C(=O)N[C@@H](C)C(=O)N[C@@H](CCCCN)C(=O)N[C@@H](CCCCN)C(=O)N[C@H](C(=O)N[C@@H](CC(C)C)C(N)=O)[C@@H](C)CC [Mastoparan, INLKALAALAKKIL-NH2] , result: 1

Data origin, for the record: paper PMC5097029
